B1: KRT18 (parent)
chain: RVRSLETENRRLESKIREHLEKKG

- Variants of: B1
- method summary: protein stability index of a GFP-peptide fusion (GPS, HEK-293T) (PSI 1-6); higher = more stable;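 note: lentivirally expressed fusions sorted by FACS into six bins by GFP to DsRed ratio, PSI derived from sequencing read proportions per bin multiplied by bin number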
- measurement setup: c terminus: a fixed tail appended
Threshold rule: protein stability index greater than or equal to 4 is True; below that, False.

Below, 5 variants whose answers are already recorded.
S4N True
N9H True
K15A True
R11I True
K15D False

Moving on to another variant below.
Is reported protein stability index greater than or equal to 4 here: "K23C"
False

Hello, the source for this data is the supplement of paper PMC10567573, in case you need it.
